B1: LINE1-full (parent)
chain: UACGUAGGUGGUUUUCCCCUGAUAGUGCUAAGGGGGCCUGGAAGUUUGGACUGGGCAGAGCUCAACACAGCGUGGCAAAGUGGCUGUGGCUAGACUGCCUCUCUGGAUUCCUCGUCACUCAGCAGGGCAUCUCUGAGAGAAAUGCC

Variants of: B1
test: self-cleavage, relative activity (ratio to wild type); higher = more cleavage; in vitro, sequencing; the parent is a self-cleaving ribozyme
Consider the following variants and their measured self-cleavage readings.

[[record]]
variant = "C51U G137U"
experimental_endpoint = "self-cleavage"
value_reported = 1.25


Data request, read-out self-cleavage, for G58A U73C
0.04

And then A59G U87G , what is it?
0

And then U85A U143A , what is it?
0.08

And then U46C U81C , what is it?
1.46

And then A107G G135A , what is it?
1.64

And then U23C C95U , what is it?
0.22

And then G86A U115A , what is it?
0.01

And then G72U A140G , what is it?
0.6

And then A31G A117U , what is it?
1

And then A42U U100A , what is it?
0.62

And then U14C G88A , what is it?
0.09

And then U26G G34A , what is it?
0.93

And then U20G U132C , what is it?
1.4

And then A57G A117G , what is it?
1.41

And then A78U U134A , what is it?
2.08

And then A22G U47A , what is it?
1.15

And then U46A C113U , what is it?
1.16
